B1: RSPH3 (parent)
chain: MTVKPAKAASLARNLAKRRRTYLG

- Variants of: B1
- procedure_summary: protein stability index of a GFP-peptide fusion (GPS, HEK-293T) (PSI 1-6); higher = more stable;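 also: lentivirally expressed fusions sorted by FACS into six bins by GFP to DsRed ratio, PSI derived from sequencing read proportions per bin multiplied by bin number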
- recorded_conditions: c terminus: a fixed tail appended
attribute_measured: protein stability index
Just the number.

QUERY: So what does the record say about protein stability index for `L23Q` ?
RESULT: 4.34

QUERY: So what does the record say about protein stability index for `R19W` ?
RESULT: 1.64

QUERY: So what does the record say about protein stability index for `T2A` ?
RESULT: 2.69

QUERY: So what does the record say about protein stability index for `A6I` ?
RESULT: 2.43

QUERY: So what does the record say about protein stability index for `M1D` ?
RESULT: 2.85

QUERY: So what does the record say about protein stability index for `P5D` ?
RESULT: 3.8

QUERY: So what does the record say about protein stability index for `A12Y` ?
RESULT: 2.19

QUERY: So what does the record say about protein stability index for `R18W` ?
RESULT: 2.55

QUERY: So what does the record say about protein stability index for `R19H` ?
RESULT: 1.51

QUERY: So what does the record say about protein stability index for `V3E` ?
RESULT: 3.22

QUERY: So what does the record say about protein stability index for `A16D` ?
RESULT: 3.04

QUERY: So what does the record say about protein stability index for `M1Q` ?
RESULT: 3.95

QUERY: So what does the record say about protein stability index for `K17M` ?
RESULT: 2.8

QUERY: So what does the record say about protein stability index for `R19Q` ?
RESULT: 2.62

QUERY: So what does the record say about protein stability index for `L15D` ?
RESULT: 4.11

QUERY: So what does the record say about protein stability index for `A12T` ?
RESULT: 3.28

QUERY: So what does the record say about protein stability index for `A8T` ?
RESULT: 2.87

QUERY: So what does the record say about protein stability index for `V3F` ?
RESULT: 3.79

QUERY: So what does the record say about protein stability index for `R20H` ?
RESULT: 2.59

QUERY: So what does the record say about protein stability index for `R13I` ?
RESULT: 2.7

QUERY: So what does the record say about protein stability index for `R13A` ?
RESULT: 3.26

QUERY: So what does the record say about protein stability index for `S10D` ?
RESULT: 2.96
